Target: human B1 receptor (Homo sapiens)
Construct: host or cells: CHO-K1
Experiment: Calcium flux assay (FLIPR) with recombinant CHO-K1 cells expressing human B1 receptor
Assay type: cell-based
Details: presence of 0.1% BSA in assay buffer, read-out: hB1 IC50
Procedure: The potency to inhibit the Bradykinin B1 receptors was determined for the example compounds of this invention in a cell-based fluorescent calcium-mobilisation assay. […] The change of the intracellular Ca^2+ concentration is monitored with a fluorescent plate reader FLIPR (Molecular Devices). […] Peak fluorescence was used to determine the response to agonist obtained at each concentration of example compound by the following equation: […]
Give measured IC50 for each item. Keep answers brief.
Reply with just the number (in µM).

Return reported IC50; argument: Cc1cccc(C2CC2C(=O)Nc2cc(-c3nnn[nH]3)c(-c3ccc(C(F)(F)F)nc3)cc2C)c1 (racemic)
0.086

Return reported IC50; argument: COc1ccc(-c2ccc(NC(=O)C3CC3C3CCCCC3)cc2-c2nnn[nH]2)cc1OC (single isomer, unassigned)
0.027

Return reported IC50; argument: COc1ccc(-c2ccc(NC(=O)C3CC3c3ccccc3F)cc2-c2nnn[nH]2)cc1OC (racemic)
0.101

Return reported IC50; argument: COc1cncc(-c2cc(C)c(NC(=O)C3CC3C3CCCCC3)cc2-c2nnn[nH]2)c1 (racemic)
0.447

----------
molecular target: human B1 receptor (Homo sapiens); construct: host or cells: CHO-K1; test: Calcium flux assay (FLIPR) with recombinant CHO-K1 cells expressing human B1 receptor; format: cell-based; conditions: presence of 0.1% BSA in assay buffer, read-out: hB1 IC50
Experimental Endpoint: pIC50
// pIC50: -log10(molar conc.)

Return reported pIC50; argument: COc1ccc(-c2cc(F)c(NC(=O)C3CC3c3cccc(C)c3)cc2-c2nnn[nH]2)cc1C (racemic) [Example 56]
7.72

Return reported pIC50; argument: CC(C)(C)c1cn(-c2ccc(NC(=O)C3CC3c3ccc(Cl)cc3)cc2-c2nnn[nH]2)cn1 (racemic) [Example 48]
7.60

Return reported pIC50; argument: COc1cncc(-c2ccc(NC(=O)C3CC3c3cccc(C)c3)cc2-c2nnn[nH]2)c1 (racemic) [Example 25]
6.28

Return reported pIC50; argument: CCc1ccc(C2CC2C(=O)Nc2ccc(-c3ccc(OC)c(OC)c3)c(-c3nnn[nH]3)c2)cc1 (racemic) [Example 12]
6.47

Return reported pIC50; argument: COc1ccc(-c2c(F)cc(NC(=O)C3CC3C3CCCCC3)cc2-c2nnn[nH]2)cc1OC (racemic) [Example 60]
6.75

Return reported pIC50; argument: COc1ccc(-c2ccc(NC(=O)C3CC3C3CCCCC3)cc2-c2nnn[nH]2)cc1 (racemic) [Example 37]
6.33

Return reported pIC50; argument: COc1ccc(-c2ccc(NC(=O)C3CC3c3ccc(C)cc3)cc2-c2nnn[nH]2)cc1 (racemic) [Example 36]
6.18

----------
Give measured IC50 for each item. Keep answers brief.
Biological target: human B1 receptor (Homo sapiens)
Construct: host or cells: CHO-K1
Sequence (P46663 1-353): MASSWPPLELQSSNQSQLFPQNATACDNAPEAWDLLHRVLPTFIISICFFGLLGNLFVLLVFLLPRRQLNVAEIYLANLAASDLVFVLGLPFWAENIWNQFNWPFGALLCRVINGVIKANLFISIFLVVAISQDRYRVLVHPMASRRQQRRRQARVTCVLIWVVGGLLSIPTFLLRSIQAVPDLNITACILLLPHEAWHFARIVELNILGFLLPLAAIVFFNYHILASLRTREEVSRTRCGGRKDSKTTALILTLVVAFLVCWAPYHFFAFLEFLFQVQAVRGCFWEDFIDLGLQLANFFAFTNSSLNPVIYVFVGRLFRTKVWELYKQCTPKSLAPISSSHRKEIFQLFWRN
Assay: Calcium flux assay (FLIPR) with recombinant CHO-K1 cells expressing human B1 receptor
Type: cell-based
Settings: presence of 0.1% BSA in assay buffer, read-out: hB1 IC50
Reply with just the number (in nM).

Lab note: need IC50 with human B1 receptor (Homo sapiens) for entry Cc1cccc(C2CC2C(=O)Nc2cc(-c3nnn[nH]3)c(-c3ccc(C(F)(F)F)nc3)cc2O)c1 (racemic) , please look it up.
37

Lab note: need IC50 with human B1 receptor (Homo sapiens) for entry CCOc1ccc(-c2ccc(NC(=O)C3CC3C3CCCCC3)cc2-c2nnn[nH]2)cn1 (racemic) , please look it up.
389

Lab note: need IC50 with human B1 receptor (Homo sapiens) for entry Cn1cc(-c2ccc(NC(=O)C3CC3c3ccc(Cl)cc3)cc2-c2nnn[nH]2)cn1 (racemic) , please look it up.
12400

Lab note: need IC50 with human B1 receptor (Homo sapiens) for entry CCOc1ccc(-c2ccc(NC(=O)C3CC3C3CCCCC3)cc2-c2nnn[nH]2)cc1OC (racemic) , please look it up.
27

Lab note: need IC50 with human B1 receptor (Homo sapiens) for entry Cc1cc(-c2ccc(C(F)(F)F)nc2)c(-c2nnn[nH]2)cc1NC(=O)C1CC1C1CCCCC1 (racemic) , please look it up.
263

Lab note: need IC50 with human B1 receptor (Homo sapiens) for entry CCOc1ccc(-c2cc(O)c(NC(=O)C3CC3c3ccc(Cl)cc3)cc2-c2nnn[nH]2)cn1 (single isomer, unassigned) [Example 49] , please look it up.
1580

Lab note: need IC50 with human B1 receptor (Homo sapiens) for entry CCOc1ccc(-c2ccc(NC(=O)C3CC3c3ccc(Cl)cc3)cc2-c2nnn[nH]2)cn1 (racemic) , please look it up.
97

Lab note: need IC50 with human B1 receptor (Homo sapiens) for entry CCOc1ccc(-c2ccc(NC(=O)C3CC3c3cccc(C)c3)cc2-c2nnn[nH]2)cc1OC (racemic) , please look it up.
12

Lab note: need IC50 with human B1 receptor (Homo sapiens) for entry COc1ccc(-c2ccc(NC(=O)C3CC3c3cccc(C)c3)cc2-c2nnn[nH]2)cc1OC (racemic) , please look it up.
19

Lab note: need IC50 with human B1 receptor (Homo sapiens) for entry O=C(Nc1ccc(-c2ccc(OC(F)(F)F)cc2)c(-c2nnn[nH]2)c1)C1CC1C1CCCCC1 (racemic) , please look it up.
31

Lab note: need IC50 with human B1 receptor (Homo sapiens) for entry COc1ccc(-c2ccc(NC(=O)C3CC3c3ccc(F)cc3)cc2-c2nnn[nH]2)cc1OC (racemic) , please look it up.
95

Lab note: need IC50 with human B1 receptor (Homo sapiens) for entry CCc1ccccc1C1CC1C(=O)Nc1ccc(-c2ccc(OC)c(OC)c2)c(-c2nnn[nH]2)c1 (racemic) , please look it up.
16

Lab note: need IC50 with human B1 receptor (Homo sapiens) for entry COc1ccc(-c2ccc(NC(=O)C3CC3c3cccc(Cl)c3)cc2-c2nnn[nH]2)cc1OC (racemic) , please look it up.
8

Lab note: need IC50 with human B1 receptor (Homo sapiens) for entry COc1ccc(C2CC2C(=O)Nc2ccc(-c3ccc(OC)c(OC)c3)c(-c3nnn[nH]3)c2)cc1 (racemic) , please look it up.
1050
